# System Tested: Serine/threonine-protein kinase NIM1 (Homo sapiens, UniProt Q8IY84)
# Sequence (Q8IY84 whole entry): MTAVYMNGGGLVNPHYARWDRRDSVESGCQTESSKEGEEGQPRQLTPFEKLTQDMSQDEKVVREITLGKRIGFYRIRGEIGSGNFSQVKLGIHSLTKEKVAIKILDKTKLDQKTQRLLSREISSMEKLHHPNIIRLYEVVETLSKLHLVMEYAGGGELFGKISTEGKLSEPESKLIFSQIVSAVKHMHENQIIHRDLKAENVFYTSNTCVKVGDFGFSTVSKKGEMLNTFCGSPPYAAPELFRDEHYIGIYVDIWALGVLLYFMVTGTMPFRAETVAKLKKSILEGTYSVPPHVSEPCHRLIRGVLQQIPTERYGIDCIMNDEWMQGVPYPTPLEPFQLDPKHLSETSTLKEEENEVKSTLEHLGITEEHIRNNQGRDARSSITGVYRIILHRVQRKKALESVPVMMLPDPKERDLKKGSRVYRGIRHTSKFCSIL
Assay Metric: IC50

Task: // IC50 lookup, key: `O=C1NCCc2[nH]c(-c3ccncc3)cc21`
Result: > 10 µM

* * *

# Tested on: SF-268
# Assay Notes: Antiproliferative activity against p53 deficient human SF268 cells after 72 hrs
# Format: functional, cell-based
# Applied Conditions: SF-268, 72 h
pIC50 values, listed per item
// pIC50: -log10(molar conc.)

Solved cases below.
[[record]]
molecule = "Nc1ccn([C@@H]2O[C@H](CO)[C@@H](O)C2(F)F)c(=O)n1 [GEMCITABINE]"
assay_metric = "pIC50"
observed = 7.99

[[record]]
molecule = "O=C1NCCc2[nH]c(-c3ccncc3)cc21"
assay_metric = "pIC50"
observed = 6.07


Now take the following molecule into account.
Task: For the molecule shown here, O=c1[nH]cc(F)c(=O)[nH]1 [FLUOROURACIL] , give the reported pIC50.
Result: 4.06

The values you see were collected from ChEMBL document CHEMBL1221210.
